biological target: Hepatocyte growth factor receptor (Homo sapiens, UniProt P08581); assay: Inhibition of c-Met (unknown origin)
Sequence (P08581 whole entry): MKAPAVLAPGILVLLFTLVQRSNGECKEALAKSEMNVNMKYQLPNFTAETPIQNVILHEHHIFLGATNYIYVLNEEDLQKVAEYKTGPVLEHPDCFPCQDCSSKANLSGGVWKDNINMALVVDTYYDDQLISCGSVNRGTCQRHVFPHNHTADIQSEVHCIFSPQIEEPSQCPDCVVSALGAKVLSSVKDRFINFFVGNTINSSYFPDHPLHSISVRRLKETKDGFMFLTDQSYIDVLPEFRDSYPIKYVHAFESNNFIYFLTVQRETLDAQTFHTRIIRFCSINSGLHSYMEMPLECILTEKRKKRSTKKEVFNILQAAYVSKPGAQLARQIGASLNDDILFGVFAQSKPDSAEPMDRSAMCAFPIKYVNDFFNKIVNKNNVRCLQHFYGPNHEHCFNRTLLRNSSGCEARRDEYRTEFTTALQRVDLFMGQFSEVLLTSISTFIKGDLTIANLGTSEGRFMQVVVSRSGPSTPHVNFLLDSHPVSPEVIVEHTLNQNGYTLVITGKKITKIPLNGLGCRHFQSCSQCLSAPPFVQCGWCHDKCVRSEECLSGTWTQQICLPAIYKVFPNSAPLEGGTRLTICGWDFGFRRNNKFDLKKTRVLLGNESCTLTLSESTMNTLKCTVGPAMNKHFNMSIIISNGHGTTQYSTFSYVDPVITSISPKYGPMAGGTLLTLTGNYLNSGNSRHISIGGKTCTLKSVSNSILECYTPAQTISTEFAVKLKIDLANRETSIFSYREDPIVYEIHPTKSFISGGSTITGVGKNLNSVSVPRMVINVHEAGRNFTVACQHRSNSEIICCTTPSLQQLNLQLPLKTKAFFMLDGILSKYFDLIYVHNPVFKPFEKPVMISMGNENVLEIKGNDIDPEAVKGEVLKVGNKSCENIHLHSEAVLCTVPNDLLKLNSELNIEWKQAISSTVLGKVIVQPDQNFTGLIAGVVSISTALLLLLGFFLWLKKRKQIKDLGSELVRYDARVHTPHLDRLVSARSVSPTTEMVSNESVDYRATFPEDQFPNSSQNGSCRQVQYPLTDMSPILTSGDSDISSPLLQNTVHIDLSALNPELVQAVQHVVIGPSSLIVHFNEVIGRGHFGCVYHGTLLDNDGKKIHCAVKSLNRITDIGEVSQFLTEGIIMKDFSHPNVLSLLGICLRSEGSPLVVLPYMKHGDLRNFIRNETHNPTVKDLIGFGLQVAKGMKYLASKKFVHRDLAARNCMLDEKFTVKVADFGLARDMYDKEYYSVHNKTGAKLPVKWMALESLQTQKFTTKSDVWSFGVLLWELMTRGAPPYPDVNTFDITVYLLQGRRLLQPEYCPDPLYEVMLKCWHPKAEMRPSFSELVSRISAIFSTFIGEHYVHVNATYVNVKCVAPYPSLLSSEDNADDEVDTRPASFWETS
endpoint: IC50 (nM)
Answer with a number only, understood to be in nM.

Look at this compound and give its reported IC50. CCn1cnc(-c2cc3nccc(Oc4ccc(NC(=S)N5CCN(c6ccc(F)cc6)C5=O)cc4F)c3s2)c1
27
